Origin of the recorded values: a melting point compilation (Tetko et al.)

attribute-measured: melting point (°C)

compound | melting point [°C]
NC(=O)/C(=C\c1ccccc1O)c1nc2ccccc2s1 | 210

I = c1ccc2c(c1)c(Cc1cn(CN3CCCCC3)c3ccccc13)cn2CN1CCCCC1
II = CCCOCC(C)OCC(C)O (configuration not stated)
Exercise: Between I and II , whose recorded melting point is greater? Select an item and report its label.
Solution: I

---

attribute-measured: melting point (°C)

Some solved cases for reference:
compound | reported-result
CC(C)(C)N=C=O | 85.5
CCOC(=O)C1=C(CBr)NC(C)=C(C(=O)OC)C1c1cccc([N+](=O)[O-])c1 (centres undefined) | 106
CN(C)Cc1c[nH]c2ccccc12 | 138

a = CC#CC(C)CC (centres undefined)
b = CC(=O)C(=NNc1ccccc1)c1cc(C(=NNc2ccccc2)C(C)=O)c([N+](=O)[O-])cc1[N+](=O)[O-]
c = CSC(SC)SC
d = O=C(O)CCc1ccccc1Cl
e = CN1C(=O)COc2ccccc21
Exercise: Sort the compounds on melting point; start with the lowest figure. Rank the items, then write their labels in that order.
Solution: a, c, e, d, b

1 = CC(C)(C)c1ncc(C(=O)Nc2cc(C(F)(F)F)cc(C(F)(F)F)c2)nc1Cl
2 = NC(N)=Nc1nc(CSCCC(N)=NS(N)(=O)=O)cs1
3 = Nc1c(C(=O)O)sc2nccnc12
Exercise: // ranking: key=melting point, reverse=True Rank them, then answer with their labels in that order.
Solution: 3, 2, 1
(3: 250 °C, 2: 163 °C, 1: 99 °C)

I = Cc1ccc(C)c2c(=O)c(=O)c12
II = CCCCCCCCCCCCCc1ccccc1
Exercise: Of I versus II , which is the one with smaller reported melting point? Use the label to indicate which entry you chose.
Solution: II

---

attribute-measured: melting point (°C)

The examples below pair each entry with its known result.
molecule | melting point, °C
O=[N+]([O-])c1ccc(N2CCOCC2)cc1 | 152
Cc1ccc(-c2nc(C(=O)O)cs2)cc1 | 170
COC(=O)C(Br)C(Br)c1cccc(C(Br)C(Br)C(=O)OC)c1 (stereo not drawn) | 145
C1CSCS1 | -50
Cc1cccc(Nc2ccccc2)c1 | 30
O=C=Nc1ccccc1Cl | 30.5
S=C=Nc1ccccc1Br | 20
Cc1ccc(F)c(C#N)c1 | 51
Nc1ccc(CCC(=O)O)cc1 | 134

P = CC1(C)SC2C(N3C(=O)C(c4ccccc4)NC3(C)C)C(=O)N2C1C(=O)O (stereo not drawn)
Q = CC1CCCC1C (stereo not drawn)
Exercise: Could you tell me which of P and Q has the lower melting point reading? Return value: the label identifying the chosen record.
Solution: Q

---

attribute-measured: melting point (°C)

Some entries whose results are on file:
molecule | unit-string | melting point
NC(=S)c1cccc(F)c1 | °C | 110
COc1cc(C(N)=O)cc(Cl)n1 | °C | 186
COC(=O)c1cc(OC)c(C)c(OC)c1 | °C | 104
COC(=O)c1cc([N+](=O)[O-])cc([N+](=O)[O-])c1 | °C | 110

a = OC1C2CC3CC(C2)CC1C3 (stereo not given)
b = CCOC(=O)Oc1c(OC)cc(C(=O)OC2CC3CN4CCc5c([nH]c6cc(OC)ccc56)C4CC3C(C(=O)OC)C2OC)cc1OC (stereo not given)
Exercise: Which is greater in melting point, the first item a or the second item b ? Write the label of whichever entry you select.
Solution: a
(a: 301 °C, b: 177 °C)

A = CCS(=O)(=O)c1ccc(F)cc1
B = C(#Cc1ccc(CCc2ccccc2)cc1)c1ccccc1
C = COC(=O)C1=C(C)NC(C)=C(C(=O)OC)C1c1cccc(OC)c1O
Exercise: Could you please order the items by melting point, going from the lowest number to the highest? Rank the items, then write their labels in that order.
Solution: A, B, C
(A: 41 °C, B: 105 °C, C: 191 °C)

I = CC1(C)CCC2(C)CCC3(C)C(=CCC4C5(C)CCC(O)C(C)(C)C5CCC43C)C2C1 (stereo not given)
II = c1n[nH]c2c1CCCC2
Exercise: Response body: label of entry with the larger melting point; valid values I , II . // output: label of the selected item
Solution: I
(I: 197 °C, II: 82 °C)

a = CCOC(=O)C(CCc1ccccc1)NC(C)C(=O)N1CCCC1C(=O)O (stereo not given)
b = N#Cc1ccc(S(=O)(=O)C(F)(F)F)cc1
Exercise: Recorded melting point values differ for a and b ; which one is higher? # answer = label of selected item
Solution: a
